Test system: IGROV1 ovarian
Experiment: NCI-60 one-dose screen, 48 h
Conditions: 10 µM unless noted
Procedure: Growth inhibition of the IGROV1 human tumor cell line is measured as a screen for anti-cancer activity. Cells are grown in 96 well plates and exposed to the test compound for 48 hours. Compounds are tested at a single concentration, which is 10^-5 M for most compounds. The reported endpoint is percent growth (GI% or GIPRCNT), where numbers from 0 - 100% represent growth inhibition, and numbers from -100% - 0 represent cell death. For example, a value of 40 represents 60% growth inhibition. […]
Compounds without any hit were thinned out: in the full panel of roughly 83,000, 20% have a hit. Activity calls are given as the source filed them. Rule for the calls: active = growth percent below 10; inactive = the rest.
Write down the outcome that applies. Available outcomes: active, inactive

Please review the following examples before continuing.
Nc1n[nH]c2ccc([C@@H]3Nc4ccc5cn[nH]c5c4[C@H]4C5CCC(C5)[C@@H]34)cc12 (stereo not given in full)	inactive
NC(=O)c1cc(Br)ccc1NC(=O)/C=C/c1ccccc1	inactive

IN: How did this test come out for Cn1cc(C(=O)c2nc(-c3c[nH]c4ccccc34)no2)c2ccccc21 ?
OUT: inactive

IN: Try this compound next: Cn1ccnc1C(=O)/C=C/c1ccc(CC(=O)Nc2ccccc2)cc1
OUT: inactive

IN: Try this compound next: COc1cccc(Nc2nc(SC)nc(-c3cccc([N+](=O)[O-])c3)c2C#N)c1
OUT: inactive

IN: Try this compound next: COc1cc(-c2nn(-c3ccc(C)cc3)cc2C(=O)O)ccc1O
OUT: inactive

IN: Try this compound next: N#C/C(=C\c1ccc(-c2ccc(Cl)c(Cl)c2)o1)c1nc(-c2ccco2)cs1
OUT: inactive

IN: Try this compound next: CN(C)C(=S)N=Nc1c(O)[nH]c2ccccc12
OUT: active

IN: Try this compound next: C#Cc1cccc(NC(=O)c2ccccc2NC(=O)CCl)c1
OUT: active

IN: Try this compound next: O=C(O)c1ccc(N=CC(=O)c2ccc(-c3ccccc3)cc2)cc1
OUT: inactive

The origin of these recorded values is PubChem BioAssay (NCI).
